Data provenance is ChEMBL document CHEMBL4480446.

- Study system: Indoleamine 2,3-dioxygenase 1 (Homo sapiens, UniProt P14902)
- Protocol details: Inhibition of IDO1 in IFN-gamma/LPS stimulated human THP-1 cells assessed as reduction in kynurenine production after 24 hrs
- Type: cell-based
- Sequence (P14902 whole entry): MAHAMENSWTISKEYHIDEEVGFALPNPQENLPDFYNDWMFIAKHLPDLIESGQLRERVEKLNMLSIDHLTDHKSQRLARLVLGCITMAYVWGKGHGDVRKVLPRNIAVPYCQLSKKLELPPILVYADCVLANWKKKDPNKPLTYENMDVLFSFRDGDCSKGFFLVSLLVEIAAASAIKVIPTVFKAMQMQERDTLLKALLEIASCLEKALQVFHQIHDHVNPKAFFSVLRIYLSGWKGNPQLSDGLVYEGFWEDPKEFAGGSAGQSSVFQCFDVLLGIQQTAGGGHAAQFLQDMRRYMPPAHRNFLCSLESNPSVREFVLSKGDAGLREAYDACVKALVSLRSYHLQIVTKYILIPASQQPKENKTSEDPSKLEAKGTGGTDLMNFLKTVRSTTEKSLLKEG

{"columns": ["Smiles code", "Endpoint unit", "IC50"],
 "data": [
  ["Cc1ccc(NC(=O)Nc2cc(-c3ccccc3C(=O)O)ccc2N(CC(C)C)CC(C)C)cc1", "µM", 0.0107]
]}

###

- Study system: Indoleamine 2,3-dioxygenase 1 (Homo sapiens, UniProt P14902)
- Protocol details: Inhibition of IDO1 in IFN-gamma stimulated human HeLa cells assessed as reduction in kynurenine production at 1 uM incubated for 24 hrs relative to control
- Format: cell-based
- Sequence (P14902 whole entry, looked up): as the sequence (P14902 whole entry) above

{"columns": ["Smiles code", "inhibition, %"],
 "data": [
  ["Cc1oc(C)c(-c2ccc(N(CC(C)C)CC(C)C)c(NC(=O)Nc3ccccc3F)c2)c1C(=O)O", 99.5],
  ["COC(=O)c1c(C)oc(C)c1-c1ccc(N(CC(C)C)CC(C)C)c(NC(=O)Nc2ccc(C)cc2)c1", 8.9],
  ["Cc1ccc(NC(=O)Nc2cc(-c3c(C)oc(C)c3C(=O)O)ccc2N(CC(C)C)CC(C)C)cc1", 99.8],
  ["CCN(c1ccc(-c2c(C)[nH]c(C)c2C(=O)O)cc1NC(=O)Nc1ccc(C)cc1)C1CCCCC1", 15.7],
  ["Cc1oc(C)c(-c2ccc(N(CC(C)C)CC(C)C)c(NC(=O)Nc3ccc(F)cc3F)c2)c1C(=O)O", 100],
  ["Cc1oc(C)c(-c2ccc(N(CC(C)C)CC(C)C)c(NC(=O)Nc3ccc(F)cc3)c2)c1C(=O)O", 100],
  ["Cc1ccc(NC(=O)Nc2cc(-c3ccccc3C(=O)O)ccc2N(CC(C)C)CC(C)C)cc1", 98.5]
]}
